Biological target: Neu5Ac(a2-3)Gal(b1-3)GlcNAc(b1-2)Man(a1-3)[Neu5Ac(a2-3)Gal(b1-3)GlcNAc(b1-2)Man(a1-6)]Man(b1-4)GlcNAc(b1-4)GlcNAc
Assay: glycan array binding signal (z-score within array); higher = stronger binding
Settings: glycan notation: IUPAC condensed, linker removed
Many of the other results were omitted from the sample, so the strongest signals are more common in it than they were.
Quantity kind: glycan array binding signal (z-score)
Please reply with the number alone, leaving off any unit.

Prompt line: Endpoint output: glycan array binding signal (z-score) of HPL (Tachypleus tridentatus) (protein) MEDDCTCVTDRSLEGKLMKHPSTPAVYQILDGCRRLVPNPPTYNNIYKNWECIQSNILEKLLCKCDSLSNGAELIKGSGDTVYLLSNGVKRPIADPETFNGFCFDWNKIKTYSDIVINSLSTGPIIIIKHHHHHH . Value?
Response line: 2.02

Prompt line: What glycan array binding signal (z-score) value was documented for this binder, Cohesin-hDCIR (Homo sapiens) (protein) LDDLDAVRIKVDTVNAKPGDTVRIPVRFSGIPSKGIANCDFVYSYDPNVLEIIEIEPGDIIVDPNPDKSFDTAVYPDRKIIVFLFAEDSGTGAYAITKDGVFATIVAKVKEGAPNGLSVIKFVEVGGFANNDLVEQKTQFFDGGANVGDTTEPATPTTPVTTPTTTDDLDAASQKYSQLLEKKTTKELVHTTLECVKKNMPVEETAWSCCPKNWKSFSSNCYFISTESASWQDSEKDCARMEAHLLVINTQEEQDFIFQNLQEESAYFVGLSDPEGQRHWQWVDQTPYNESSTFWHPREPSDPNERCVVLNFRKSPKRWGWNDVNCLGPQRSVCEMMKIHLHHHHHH ?
Response line: -0.312
